All figures here come from ChEMBL document CHEMBL3994572.

- Tested on: Coxsackievirus B3
- test.description: Antiviral activity against Coxsackievirus B3 infected in African green monkey Vero cells assessed as inhibition of virus-induced cytopathic effect
- Type: functional
- assay.setup: Enterovirus B
observable: IC50

{"columns": ["molecule.smiles", "observable", "measured.value"],
 "data": [
  ["C[C@H](CC[C@H](O)C(C)(C)O)[C@H]1CC[C@@]2(C(=O)O)C3=C(CC[C@]12C)[C@@]1(C)CC[C@@H](O[C@@H]2O[C@H](CO)[C@@H](O)[C@H](O)[C@H]2O)C(C)(C)[C@@H]1CC3", "IC50", "≥ 33.3 µM"]
]}

What the record says about C[C@H](CC[C@H](O)C(C)(C)O)[C@H]1CC[C@@]2(C(=O)O)[C@@H]3CCC4=C(CC[C@@H](O[C@@H]5O[C@H](CO)[C@@H](O)[C@H](O)[C@H]5O)C4(C)C)C[C@H]3CC[C@]12C : IC50 is ≥ 33.3 µM

What the record says about C[C@H](CCC(=O)C(C)(C)O)[C@H]1CC[C@@]2(C(=O)O)[C@@H]3CCC4=C(CC[C@@H](O)C4(C)C)C[C@H]3CC[C@]12C : IC50 is 2.1 µM

What the record says about C[C@H](CCC(=O)C(C)(C)O)[C@H]1CC[C@@]2(C(=O)O)[C@@H]3CCC4=C(CC[C@@H](O[C@@H]5O[C@H](CO)[C@@H](O)[C@H](O)[C@H]5O)C4(C)C)C[C@H]3CC[C@]12C : IC50 is 11.1 µM

What the record says about C[C@H](CC[C@H](O[C@@H]1OC[C@H](O)[C@H](O)[C@H]1O)C(C)(C)O)[C@H]1CC[C@@]2(C(=O)O)C3=C(CC[C@]12C)[C@@]1(C)CC[C@@H](O[C@@H]2O[C@H](CO)[C@@H](O)[C@H](O)[C@H]2O)C(C)(C)[C@@H]1CC3 : IC50 is ≥ 33.3 µM

What the record says about C[C@H](CC[C@H](O[C@@H]1OC[C@H](O)[C@H](O)[C@H]1O)C(C)(C)O)[C@H]1CC[C@@]2(C(=O)O)[C@@H]3CC[C@H]4C(=CC[C@@H](O[C@@H]5OC[C@H](O)[C@H](O)[C@H]5O)C4(C)C)C[C@H]3CC[C@]12C : IC50 is ≥ 33.3 µM

What the record says about C[C@H]1[C@H](C)CC[C@@]23CC[C@@]4(C)[C@@]5(C)[C@H](C[C@@H](O)[C@]4(OC2=O)[C@H]13)[C@@]1(C)C[C@@H](O)[C@@H](O)[C@](C)(CO)[C@@H]1C[C@@H]5O : IC50 is ≥ 33.3 µM
